# study.target: human TLR7 (Homo sapiens)
# Sequence (Q9NYK1 27-1049): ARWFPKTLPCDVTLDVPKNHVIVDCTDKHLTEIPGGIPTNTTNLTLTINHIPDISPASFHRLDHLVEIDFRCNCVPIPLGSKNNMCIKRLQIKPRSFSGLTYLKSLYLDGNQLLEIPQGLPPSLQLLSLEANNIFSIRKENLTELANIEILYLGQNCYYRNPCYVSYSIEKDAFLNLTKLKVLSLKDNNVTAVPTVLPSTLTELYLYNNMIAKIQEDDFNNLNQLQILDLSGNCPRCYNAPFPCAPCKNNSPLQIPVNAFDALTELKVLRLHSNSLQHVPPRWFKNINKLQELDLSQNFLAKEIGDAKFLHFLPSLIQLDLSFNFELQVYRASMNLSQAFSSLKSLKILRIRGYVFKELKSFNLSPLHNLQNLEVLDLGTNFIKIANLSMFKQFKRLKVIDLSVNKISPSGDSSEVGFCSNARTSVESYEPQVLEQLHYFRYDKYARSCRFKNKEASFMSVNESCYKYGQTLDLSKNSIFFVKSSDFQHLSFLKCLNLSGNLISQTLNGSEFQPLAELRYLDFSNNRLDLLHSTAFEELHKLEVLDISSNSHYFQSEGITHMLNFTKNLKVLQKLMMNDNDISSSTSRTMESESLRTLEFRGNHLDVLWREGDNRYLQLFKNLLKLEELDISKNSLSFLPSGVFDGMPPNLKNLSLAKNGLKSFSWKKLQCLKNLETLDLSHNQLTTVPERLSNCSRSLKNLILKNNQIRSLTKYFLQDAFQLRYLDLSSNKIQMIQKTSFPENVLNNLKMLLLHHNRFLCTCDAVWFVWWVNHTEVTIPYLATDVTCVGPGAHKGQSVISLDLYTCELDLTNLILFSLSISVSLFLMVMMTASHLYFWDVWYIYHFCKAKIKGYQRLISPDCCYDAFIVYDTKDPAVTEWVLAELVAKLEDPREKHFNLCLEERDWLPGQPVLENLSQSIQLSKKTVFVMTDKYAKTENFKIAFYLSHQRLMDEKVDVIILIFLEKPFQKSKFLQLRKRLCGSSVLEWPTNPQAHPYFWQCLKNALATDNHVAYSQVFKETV
# assay.name: TLR7 inhibition reporter assay (HEK-Blue cells, SEAP reporter, gardiquimod stimulation)
# assay.context: HEK-Blue cells overexpressing human TLR7, SEAP reporter, gardiquimod 7.5 μM
pIC50: −log10 of the molar value.
readout.kind: pIC50

| compound | study.target | readout.kind | measured |
| --- | --- | --- | --- |
| Cc1cc(-c2[nH]c3ccc(C4CCC(O)CC4)cc3c2C(C)C)ccn1 (stereo not drawn) [Example 173] | human TLR7 (Homo sapiens) | pIC50 | 7.34 |
| Cc1cc(-c2[nH]c3ccc(CC4CCCN4Cc4ccccc4)cc3c2C(C)C)cn2ncnc12 (single isomer, unassigned) [Example 396] | human TLR7 (Homo sapiens) | pIC50 | 8.70 |
| Cc1cc(-c2[nH]c3ccc(C4CN(CC(=O)N(C)C)CCO4)cc3c2C(C)C)cn2ncnc12 (single isomer, unassigned) [Example 316] | human TLR7 (Homo sapiens) | pIC50 | 8.05 |
| Cc1cc(-c2[nH]c3ccc(CC4CCCN4)cc3c2C(C)C)cn2ncnc12 (stereo not drawn) [Example 398] | human TLR7 (Homo sapiens) | pIC50 | 9.00 |
| Cc1cc(-c2[nH]c3ccc(CCN4CCS(=O)(=O)CC4)cc3c2C(C)C)cn(C)c1=O [Example 402] | human TLR7 (Homo sapiens) | pIC50 | 6.97 |
| Cc1cc(-c2[nH]c3ccc(C4CN(C(=O)CN(C)C)CCO4)cc3c2C(C)C)cn2ncnc12 (stereo not drawn) [Example 328] | human TLR7 (Homo sapiens) | pIC50 | 9.07 |
| CC(C)c1c(-c2ccnc3[nH]ncc23)[nH]c2ccc(C3CCC(OC4CCNCC4)CC3)cc12 (stereo not drawn) [Example 502] | human TLR7 (Homo sapiens) | pIC50 | 7.15 |
| Cc1c(-c2[nH]c3ccc(C4CCC(N(C)C5COC5)CC4)cc3c2C(C)C)cn2cnnc2c1C (stereo not drawn) [Example 526] | human TLR7 (Homo sapiens) | pIC50 | 8.22 |
| Cc1cc(-c2[nH]c3ccc(C4CN(CC(C)(C)O)C(C)(C)CO4)cc3c2C(C)C)cn2ncnc12 (stereo not drawn) [Example 385] | human TLR7 (Homo sapiens) | pIC50 | 7.85 |
| COc1cc(-c2[nH]c3ccc(C4CCC(N(C)CC(F)F)CC4)cc3c2C(C)C)cn2ncnc12 (stereo not drawn) [Example 81] | human TLR7 (Homo sapiens) | pIC50 | 7.77 |
| Cc1cc(-c2[nH]c3ccc(C4CCCN(CC(=O)N(C)C)C4)cc3c2C(C)C)cc(C)n1 (stereo not drawn) [Example 233] | human TLR7 (Homo sapiens) | pIC50 | 7.82 |
| Cc1cc(-c2[nH]c3ccc(C4CN(CC(=O)N(C)C)CCO4)cc3c2C(C)C)cn2ncnc12 (single isomer, unassigned) [Example 308] | human TLR7 (Homo sapiens) | pIC50 | 8.10 |
| Cc1c(-c2[nH]c3ccc(C4CC5CN(C6COC6)CC5C4)cc3c2C(C)C)cn2cnnc2c1C (stereo not drawn) [Example 522] | human TLR7 (Homo sapiens) | pIC50 | 8.05 |
| Cc1cc(-c2[nH]c3ccc([C@@H]4C[C@H]4CN4CCCC4)cc3c2C(C)C)ccn1 [Example 464] | human TLR7 (Homo sapiens) | pIC50 | 7.55 |
| Cc1c(-c2[nH]c3ccc(C4CN(C)C4)cc3c2C(C)C)cn2ncnc2c1C [Example 547] | human TLR7 (Homo sapiens) | pIC50 | 9.43 |
| Cc1c(-c2[nH]c3ccc(C4CCC(N5CC(F)(F)C5)CC4)cc3c2C(C)C)cn2ncnc2c1C (stereo not drawn) [Example 25] | human TLR7 (Homo sapiens) | pIC50 | 7.31 |
| Cc1cc(-c2[nH]c3ccc([C@H]4C[C@H]4C(=O)N4CC5CNCC5C4)cc3c2C(C)C)ccn1 (stereo partly drawn) [Example 455] | human TLR7 (Homo sapiens) | pIC50 | 6.73 |
| COCCN(C)C1CCC(c2ccc3[nH]c(-c4cn5ncnc5c(C)c4C)c(C(C)C)c3c2)CC1 (single isomer, unassigned) [Example 152] | human TLR7 (Homo sapiens) | pIC50 | 8.40 |
| Cc1c(-c2[nH]c3ccc(C4CN(C5CCOC5)C4)cc3c2C(C)C)cn2cnnc2c1C (stereo not drawn) [Example 538] | human TLR7 (Homo sapiens) | pIC50 | 7.48 |
| Cc1c(-c2[nH]c3ccc(C4CN(C(C)C)C4)cc3c2C(C)C)cn2cnnc2c1C [Example 534] | human TLR7 (Homo sapiens) | pIC50 | 8.05 |
| Cc1c(-c2[nH]c3ccc(C4CN(CC(=O)N(C)C)C4)cc3c2C(C)C)cn(C)c(=O)c1C [Example 489] | human TLR7 (Homo sapiens) | pIC50 | 6.89 |
| Cc1cc(-c2[nH]c3ccc(C4CN(C5COC5)CCO4)cc3c2C(C)C)cn2ncnc12 (stereo not drawn) [Example 290] | human TLR7 (Homo sapiens) | pIC50 | 7.44 |
| Cc1cc(-c2[nH]c3ccc(C4CCC(N(C)CC(=O)N(C)C)CC4)cc3c2C(C)C)cn2ncnc12 (single isomer, unassigned) [Example 177] | human TLR7 (Homo sapiens) | pIC50 | 8.30 |
| Cc1cc(-c2[nH]c3ccc(C4CCC(C(=O)N5CCCCC5)CC4)cc3c2C(C)C)cn2ncnc12 (single isomer, unassigned) [Example 160] | human TLR7 (Homo sapiens) | pIC50 | 8.05 |
| Cc1cc(-c2[nH]c3ccc(C4CN(CC(=O)N(C)C)CCO4)cc3c2C(C)C)cc(C)n1 (stereo not drawn) [Example 322] | human TLR7 (Homo sapiens) | pIC50 | 7.16 |
| Cc1c(-c2[nH]c3ccc(C4CCC(N(C)C5COC5)CC4)cc3c2C(C)C)cn2cnnc2c1C (stereo not drawn) [Example 528] | human TLR7 (Homo sapiens) | pIC50 | 8.70 |
| Cc1c(-c2[nH]c3ccc(C4CC(NCC#N)C4)cc3c2C(C)C)cn2ncnc2c1C (stereo not drawn) [Example 567] | human TLR7 (Homo sapiens) | pIC50 | 8.70 |
| Cc1cc(-c2[nH]c3ccc(C4CN(C(=O)CN(C)C)CCO4)cc3c2C(C)C)cc(C)n1 (stereo not drawn) [Example 336] | human TLR7 (Homo sapiens) | pIC50 | 8.00 |
| COc1cc(-c2[nH]c3ccc(C4CCC(N5CCOCC5)CC4)cc3c2C(C)C)cn2ncnc12 (stereo not drawn) [Example 76] | human TLR7 (Homo sapiens) | pIC50 | 9.00 |
| CNCC(=O)N1CCCC(c2ccc3[nH]c(-c4cc(OC)c5ncnn5c4)c(C(C)C)c3c2)C1 (stereo not drawn) [Example 212] | human TLR7 (Homo sapiens) | pIC50 | 8.52 |
